Documented composite z-score across a set of compounds
# Tested on: Neuregulin-1 EGF-like domain
# ASSAY TEXT: binders of neuregulin-1 EGF-like domain, primary screen, biochemical, small-molecule microarray, 635 nm fluorescence (AID 1081);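 note: binding of the protein to compounds printed on small-molecule microarray slides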
# MEASUREMENT CONDITIONS: small-molecule microarray binding, higher = more signal
READOUT: composite z-score

| COMPOUND | READOUT | REPORTED |
| --- | --- | --- |
| CCOC(=O)C[C@H]1[C@H](OC(=O)c2ccc(C(=O)c3ccccc3)cc2)[C@@H](NC(=O)CC(C)C)c2cc(OCCCO)ccc2N1C(=O)Cc1ccc(OC)cc1 | composite z-score | 0.2 |
| COC(=O)[C@@]1(Cc2ccccc2)[C@H]2c3cc(C(=O)N(C)C)n(CCn4cc([N+](=O)[O-])nc4C)c3C[C@H]2CN1C(=O)c1ccccc1 | composite z-score | 1.2 |
| C=C(C(=O)CC[C@@H](OC(=O)c1ccccc1-c1ccccc1C(=O)O)c1ccccc1OCCO)C(C)C | composite z-score | 0.838 |
| C=CCOC(=O)[C@H]1[C@@H]2C(=O)O[C@@H](c3ccccc3)[C@@H](c3ccccc3)N2[C@@H](c2ccc(OCCOC(=O)[C@H]3C[C@H]4C(=O)N[C@@H](CCCCNC(C)=O)C(=O)N4[C@H]3c3cccc(OCCO)c3)cc2)[C@]12C(=O)Nc1ccc(I)cc12 | composite z-score | 1.26 |
| COCCCNC(=O)[C@@]1(c2ccc([N+](=O)[O-])cc2)CC(=O)N(C(C)C)[C@@H]1c1ccc(CO)cc1 | composite z-score | 0.539 |
| CC(C)(C)OC(=O)CC[C@]12N=C(c3ccc(OCCCO)cc3)O[C@H]1c1ccccc1N(Cc1ccccc1)C2=O | composite z-score | 1.13 |

###

# ASSAY TEXT: binders of probe aFGF10 on microarray, primary screen, stem cell growth factor project, biochemical, small-molecule microarray, fluorescence 635/667 (AID 1071);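 note: score merges 667 nm spot intensity and signal to noise from triplicate slides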
# MEASUREMENT CONDITIONS: higher = more signal

| MOLECULE | composite z-score |
| --- | --- |
| COCCOC(=O)N1C(=O)[C@@]2(c3cc(C#CCC(C(=O)OC)C(=O)OC)ccc31)[C@H](C(=O)NC[C@H](O)c1ccccc1)[C@H]1C(=O)O[C@H](c3ccccc3)[C@H](c3ccccc3)N1[C@@H]2c1ccc(OCCO)cc1 | 0.245 |
| CN(C)CCCC[C@@H]1NC(=O)[C@@H]2C[C@H](C(=O)O)[C@H](c3cccc(OCCO)c3)N2C1=O | -0.392 |
| CCC(CC)C(O)C1C=CC2C(=O)N(c3ccccc3)C(=O)C2N1Nc1ccc([N+](=O)[O-])cc1 (stereo unspecified) | 0.848 |
| NC(=O)[C@@H]1[C@H]2C(=O)O[C@H](c3ccccc3)[C@H](c3ccccc3)N2[C@H](c2ccc(OCCO)cc2)[C@@]12C(=O)Nc1ccc(C#CCCO)cc12 | 0.786 |
| COC(=O)C1=CC(CCCO)=CC(c2ccc(CN3CCCC3)cc2)N(Cc2cc3c(cc2Br)OCO3)C=C1C(=O)OC (stereo unspecified) | 1.26 |
| NC(=O)[C@H]1[C@@H]2C(=O)O[C@@H](c3ccccc3)[C@@H](c3ccccc3)N2[C@@H](c2ccc(O)cc2)[C@]12C(=O)Nc1ccc(C#CC3=CCCCC3)cc12 | -0.105 |
